The reported measurements were obtained from PubChem BioAssay (NCATS).

So I've got a bunch of molecules here, and I need their Z-AUC values.
- assayProcedure: qHTS drug screen for cell cycle checkpoint inhibitors in PARPi-resistant BRCA-mutant ovarian cancer cell lines. (AID 1963452)
- conditionParameters: PEO1/OlaR viability, CellTiter-Glo luminescence, 96 h; measured here: PEO1 parental Z-AUC; stronger effect = lower value
// print number alone

In one line, give reported Z-AUC of the entry COc1ccc(-n2cnc3cc(C(=O)N4CCCCC4)ccc32)cc1 .
0.696

In one line, give reported Z-AUC of the entry COc1nc(OCc2cccc(-c3ccccc3)c2C)ccc1CNCCNC(C)=O .
-0.646

In one line, give reported Z-AUC of the entry N=C1S/C(=C\c2ccc(-c3ccc4c(c3)C(=O)NC4=O)o2)C(=O)N1c1ccc(Br)cc1 .
0.782

In one line, give reported Z-AUC of the entry CC1(C)OC2=C(C(=O)c3ccccc3C2=O)[C@H](NCc2ccccc2)[C@@H]1O .
1.22

In one line, give reported Z-AUC of the entry O=C(O)CCNc1cc(N2CCc3ccccc3CC2)nc(-c2cccnc2)n1 .
0.839

In one line, give reported Z-AUC of the entry Cn1cc(-c2ccc(-c3cncc(Cl)c3N3CCC4(CCNC4=O)CC3)cc2)cn1 .
-0.614

====

- testedTarget: Ubiquitin carboxyl-terminal hydrolase 2 (Homo sapiens)
- assayProcedure: qHTS for Inhibitors of Ubiquitin-specific Protease USP2a Using CHOP2 as the Reporter: K484 Substrate (AID 652173);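 note: cleavage of internally quenched K48 di-ubiquitin substrate measured as rising fluorescence over time; nearly all actives have a fitted effect of over 70% in size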
- conditionParameters: USP2 cleavage of DiUb K48 IQF substrate, fluorescence; series mostly up to 57.5 µM
Results filed as inconclusive are left out. The source made the active and inactive calls. Calls come from the whole dose curve; as a rule, active = well fitted inhibition curve with a large enough effect; inconclusive = small, poorly fitted or top-dose-only effect; inactive = flat fitted curve, though single readings scatter.
Would you mind answering with one of these outcomes? active, inactive

// outcome(item) with item = Cc1ccc(-c2cc(C(=O)Nc3nc4ccccc4s3)c3ccccc3n2)cc1C
active

// outcome(item) with item = CC(=O)Nc1ccc(S(=O)(=O)Nc2nccs2)cc1
inactive

// outcome(item) with item = Cc1ccc(S(=O)(=O)Nc2cnccc2C(=O)Nc2nc(-c3ccc(Cl)c(Cl)c3)cs2)cc1
active

// outcome(item) with item = Cc1ccc(S(=O)(=O)Nc2cnccc2C(=O)Nc2ccncc2)cc1
inactive

// outcome(item) with item = COC(=O)c1ccccc1C(=O)Nc1nc(-c2ccccc2)cs1
active

// outcome(item) with item = O=C(Nc1nc(-c2ccccc2)cs1)c1ccncc1NS(=O)(=O)c1cccc2cccnc12
active

// outcome(item) with item = CC(C)(C)C1CCC(C(=O)Nc2ccc(S(=O)(=O)Nc3nccs3)cc2)CC1 (stereo unspecified)
active

// outcome(item) with item = Cc1ccc(-c2cc(C(=O)N(C)c3ccccc3)c3ccccc3n2)cc1C
active

// outcome(item) with item = Cc1ccc(S(=O)(=O)Nc2ccccc2C(=O)Nc2ccc(-c3ccccc3)cn2)cc1
active

// outcome(item) with item = Cc1ccc(-c2cc(C(=O)Nc3ccn[nH]3)c3ccccc3n2)cc1C
active

// outcome(item) with item = Cc1ccc(CNc2ccccc2C(=O)Nc2nc(-c3ccccc3)cs2)cc1
active

// outcome(item) with item = O=c1[nH]c(CCl)nc2sc3c(c12)CCC3
inactive

// outcome(item) with item = O=C(O)c1cccc(S(=O)(=O)Nc2nccs2)c1
inactive

// outcome(item) with item = Cc1ccc(-c2cc(C(=O)Nc3ccccc3Cl)c3ccccc3n2)cc1C
active

// outcome(item) with item = CC(=O)NS(=O)(=O)c1ccc(NC(=O)c2cc(-c3ccc(C)c(C)c3)nc3ccccc23)cc1
active

// outcome(item) with item = Cc1ccc(-c2cc(C(=O)Nc3ccc(-c4noc(=O)[nH]4)cc3)c3ccccc3n2)cc1C
active

// outcome(item) with item = Cc1ccc(-c2cc(C(=O)Nc3ccccc3)c3ccccc3n2)cc1C
active

// outcome(item) with item = Cc1ccc(S(=O)(=O)Nc2ccccc2C(=O)Nc2nc(-c3ccc(Cl)cc3)cs2)cc1
active

// outcome(item) with item = CCOC(=O)c1csc(NC(=O)c2ccncc2NS(=O)(=O)c2ccc(C)cc2)n1
active

// outcome(item) with item = Cc1ccc(-c2cc(C(=O)Nc3ncco3)c3ccccc3n2)cc1C
active

// outcome(item) with item = Cc1ccc(S(=O)(=O)Nc2cccc(C(=O)Nc3nc(-c4ccccc4)cs3)c2)cc1
active
